Test system: morningglory (Ipomoea spp.)
Experiment: Test A pre-/postemergence: morningglory
Format: in vivo
Conditions: Preemergence, 500 g ai/ha; 0 to 100 scale (0 no effect, 100 complete control)
observable: Plant response rating, Morningglory
Give bare numbers.

Sample answers from the record:
# compoundStructureString, measuredTarget, Plant response rating, Morningglory
records = [
    ("CCCOc1nn(-c2ccc(C(F)(F)F)cc2)nc1Cc1ccnc(C(F)(F)F)c1", "morningglory (Ipomoea spp.)", 30),
    ("Cc1nn(-c2ccc(F)c(C(F)(F)F)c2)nc1Cc1ccnc(C(F)(F)F)c1", "morningglory (Ipomoea spp.)", 90),
]

Please respond with reported Plant response rating, Morningglory (system morningglory (Ipomoea spp.)) for CCc1nn(-c2ccc(C(F)(F)F)c(F)c2)nc1Oc1ccnc(C(F)(F)F)c1 .
90

---

I'd be grateful if you could share measured Plant response rating, Barnyardgrass for these entries.
Tested on: barnyardgrass (Echinochloa crus-galli)
Assay: Test A pre-/postemergence: barnyardgrass
Type: in vivo
Details: Preemergence, 500 g ai/ha; 0 to 100 scale, 0 is no effect, 100 is complete control
One number for each entry.

Would you please look over these solved cases?
# compound, measuredResult
rows = [
    ("Cc1nn(-c2ccc(C(F)(F)F)cc2)nc1Oc1ccnc(OC(F)F)c1", 30),
    ("Cc1nn(-c2ccc(F)cc2)nc1Cn1c(Cl)nc(C(F)(F)F)c1Cl", 0),
    ("CCc1nn(-c2ccc(F)cc2)nc1Cn1ccc(C(F)(F)C(F)(F)F)n1", 10),
    ("Cc1nn(-c2ccc(C(F)(F)F)cc2)nc1Oc1cncc(C(F)(F)F)c1", 90),
]

Required: Plant response rating, Barnyardgrass, one value per compound below.
1. Cc1nn(-c2ccc(C(F)(F)F)cn2)nc1Oc1ccnc(C(F)(F)F)c1
2. COc1nn(-c2ccc(C(F)(F)F)cc2)nc1C(F)c1ccnc(C(F)(F)F)c1 (stereo not shown)
3. Cc1nn(-c2ccc(C(F)(F)F)cc2)nc1Oc1cc(C(F)(F)F)nn1C
4. Cc1nn(-c2ccc(C(F)F)cn2)nc1C(=O)c1cccc(C(F)(F)F)c1
5. Cc1nn(-c2ccc(F)cc2)nc1Oc1ccnc(C(F)(F)F)n1
6. Cc1nn(-c2ccc(C(F)(F)F)cn2)nc1C(=O)c1cccc(C(F)(F)F)c1
7. Cc1nn(-c2ccc(F)cc2)nc1Oc1cccc(C(F)(F)F)c1

1: 100; 2: 70; 3: 20; 4: 0; 5: 80; 6: 80; 7: 60

---

System: Oilseed Rape
Assay: Test C preemergence: oilseed rape
Type: in vivo
Conditions: 62 g ai/ha, scale of 0 to 100, 0 is no effect, 100 is complete control
So I've got a bunch of compounds here, and I need their Plant response rating, Oilseed Rape values.

# compound, measuredTarget, Plant response rating, Oilseed Rape
records = [
    ("Cc1nn(-c2ccc(F)c(C(F)(F)F)c2)nc1Cc1ccnc(C(F)(F)F)c1 [Compound 156]", "Oilseed Rape", 60),
]

Return reported Plant response rating, Oilseed Rape values for all items listed beneath this line.
1. CCCc1nn(-c2ccc(F)cc2)nc1Oc1ccnc(C(F)(F)F)c1 [Compound 168]
2. CCCc1nn(-c2ccc(C(F)(F)F)cc2)nc1Oc1ccnc(C(F)(F)F)c1 [Compound 170]
3. CCOc1nn(-c2ccc(Cl)cc2)nc1Cc1ccnc(C(F)(F)F)c1 [Compound 188]

[100, 95, 70]

---

Test system: Barnyardgrass
Experiment: Test C postemergence: barnyardgrass
Format: in vivo, Echinochloa crus-galli
Settings: 125 g ai/ha, scale 0 to 100, 0 no effect, 100 complete control
observable: Plant response rating, Barnyardgrass
Give bare numbers.

# return Plant response rating, Barnyardgrass for each item in the list
1. CCCc1nn(-c2ccc(C(F)(F)F)cc2)nc1Oc1ccnc(C(F)(F)F)c1 [Compound 170]
2. CCc1nn(-c2ccc(C(F)(F)F)cc2)nc1Cc1ccnc(C(F)(F)F)c1 [Compound 155]
3. CCOc1nn(-c2ccc(Cl)cc2)nc1Cc1ccnc(C(F)(F)F)c1 [Compound 188]
4. CCOc1nn(-c2ccc(C(F)(F)F)cc2)nc1Cc1ccnc(C(F)(F)F)c1 [Compound 164]
5. CCCc1nn(-c2ccc(F)c(F)c2)nc1Oc1ccnc(C(F)(F)F)c1 [Compound 172]

1. 85
2. 55
3. 98
4. 10
5. 85

For the compound CCCc1nn(-c2ccc(F)cc2F)nc1Oc1ccnc(C(F)(F)F)c1 [Compound 179] , give its measured Plant response rating, Barnyardgrass value.
65

---

System: kochia (Kochia scoparia)
Assay: Test C pre-/postemergence: kochia
Assay type: in vivo
Settings: Preemergence, 250 g ai/ha; scale 0 to 100, 0 no effect, 100 complete control
For each entry below, report its Plant response rating, Kochia value.
One number for each entry.

Below: 5 compounds and their reported Plant response rating, Kochia.
# compoundStructureString, measuredResult
records = [
    ("Cc1nn(-c2ccc(C(F)(F)F)c(F)c2)nc1Oc1ccnc(C(F)(F)F)c1", 95),
    ("COc1nn(-c2ccc(C(F)(F)F)cc2)nc1Cc1ccnc(C(F)F)c1", 90),
    ("Cc1nn(-c2ccc(C(F)(F)F)cn2)nc1Oc1ccnc(C(F)(F)F)c1", 100),
    ("CCOc1nn(-c2ccc(F)cc2)nc1Cc1ccnc(C(F)(F)F)c1", 98),
    ("Cc1nn(-c2ccc(F)cc2F)nc1Oc1ccnc(C(F)(F)F)c1", 85),
]

// switching to the query compound
Give the reported Plant response rating, Kochia for this compound. Fc1ccc(-n2nc(Cc3ccnc(C(F)(F)F)c3)c(OC(F)F)n2)cc1
85

---

System: barnyardgrass (Echinochloa crus-galli)
Assay: Test A pre-/postemergence: barnyardgrass
Assay type: in vivo
Details: Postemergence, 500 g ai/ha; 0 to 100 scale, 0 is no effect, 100 is complete control
Field: Barnyardgrass plant response rating. Provide a value for each of the compounds that follow.
Give bare numbers.

Some compounds with known Barnyardgrass plant response rating results, for comparison:
# compoundStructureString, measuredTarget, Barnyardgrass plant response rating
data = [
    ("CCCOc1nn(-c2ccc(C(F)(F)F)cc2)nc1Cc1ccnc(C(F)(F)F)c1", "barnyardgrass (Echinochloa crus-galli)", 100),
    ("CCCc1nn(-c2ccc(F)cc2F)nc1Oc1ccnc(C(F)(F)F)c1", "barnyardgrass (Echinochloa crus-galli)", 90),
]

Now consider the entry below.
Please report the measured Barnyardgrass plant response rating for CCCc1nn(-c2ccc(F)c(F)c2)nc1Oc1ccnc(C(F)(F)F)c1
90

---

Tested on: oilseed rape (Brassica napus)
Experiment: Test D pre-/postemergence: oilseed rape
Format: in vivo
Conditions: Postemergence, 62 g ai/ha; scale 0 to 100 (0 no effect, 100 complete control)
Excerpt: […] Treated plants and controls were maintained in a controlled growth environment for 14 to 21 days after which time all species were compared to controls and visually evaluated. […]
observable: Plant response rating: Oilseed Rape
Give bare numbers.

Please review the following examples before continuing.
# compound, measuredTarget, observable, measuredResult
data = [
    ("Cc1nn(-c2ccc(F)c(C(F)(F)F)c2)nc1Cc1ccnc(C(F)(F)F)c1 [Compound 156]", "oilseed rape (Brassica napus)", "Plant response rating: Oilseed Rape", 100),
    ("CCOc1nn(-c2ccc(F)cc2)nc1Cc1ccnc(C(F)(F)F)c1 [Compound 196]", "oilseed rape (Brassica napus)", "Plant response rating: Oilseed Rape", 100),
    ("Cc1nn(-c2ccc(C(F)(F)F)cn2)nc1Cc1cccc(C(F)(F)F)c1 [Compound 106]", "oilseed rape (Brassica napus)", "Plant response rating: Oilseed Rape", 10),
]

Moving on to the next compound.
Name the recorded Plant response rating: Oilseed Rape of the compound listed here: Cc1nn(-c2ccc(C(F)(F)F)cn2)nc1Oc1ccnc(C(F)(F)F)c1 [Compound 23]
75

---

Please go through the items and note down their Plant response rating, Morningglory.
Test system: morningglory (Ipomoea coccinea)
Assay: Test C pre-/postemergence: morningglory
Type: in vivo
Conditions: Postemergence, 125 g ai/ha; scale 0 to 100, 0 no effect, 100 complete control
Answers are plain numbers.

Solved cases below.
# compoundStructureString, measuredTarget, measuredResult
data = [
    ("Cc1nn(-c2ccc(C(F)(F)F)cn2)nc1Cc1cccc(C(F)(F)F)c1", "morningglory (Ipomoea coccinea)", 40),
    ("Cc1nn(-c2ccc(C(F)(F)F)cn2)nc1Oc1ccnc(C(F)(F)F)c1", "morningglory (Ipomoea coccinea)", 90),
    ("CCc1nn(-c2ccc(C(F)(F)F)cc2)nc1Cc1ccnc(C(F)(F)F)c1", "morningglory (Ipomoea coccinea)", 65),
]

Provide reported Plant response rating, Morningglory for each item, in the same order as listed.
1. CCc1nn(-c2ccc(F)c(F)c2)nc1Oc1ccnc(C(F)(F)F)c1
2. CCc1nn(-c2ccc(F)cc2)nc1Cc1ccnc(C(F)(F)F)c1
3. CCOc1nn(-c2ccc(F)cc2)nc1Cc1ccnc(C(F)(F)F)c1
4. CCc1nn(-c2ccc(C(F)(F)F)cc2)nc1Oc1ccnc(C(F)(F)F)c1
5. Cc1nn(-c2ccc(C(F)(F)F)cc2)nc1Oc1ccnc(C(F)(F)F)c1
6. CCCc1nn(-c2ccc(F)cc2)nc1Oc1ccnc(C(F)(F)F)c1

[98, 75, 75, 100, 65, 90]

State its Plant response rating, Morningglory for this compound: COc1nn(-c2cccc(F)c2)nc1Cc1ccnc(C(F)(F)F)c1
60
